- target_or_test_system: human alpha 7-wt nAChR (Homo sapiens, UniProt P36544)
- Construct: expressed in transfected cells
- Sequence (P36544 23-502): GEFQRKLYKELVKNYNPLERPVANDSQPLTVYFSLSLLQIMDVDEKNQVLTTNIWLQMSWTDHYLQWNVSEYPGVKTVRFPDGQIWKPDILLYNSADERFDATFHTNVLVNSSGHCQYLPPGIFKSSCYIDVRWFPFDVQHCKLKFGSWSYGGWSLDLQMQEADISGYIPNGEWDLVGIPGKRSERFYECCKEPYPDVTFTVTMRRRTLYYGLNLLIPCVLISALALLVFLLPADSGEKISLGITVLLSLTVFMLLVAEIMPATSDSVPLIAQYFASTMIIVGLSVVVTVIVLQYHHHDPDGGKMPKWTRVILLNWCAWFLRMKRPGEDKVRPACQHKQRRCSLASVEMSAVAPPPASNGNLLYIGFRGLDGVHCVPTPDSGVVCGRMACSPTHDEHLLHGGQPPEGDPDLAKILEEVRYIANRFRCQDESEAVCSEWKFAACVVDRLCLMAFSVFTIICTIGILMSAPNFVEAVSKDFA
- procedure_summary: Ca2+ flux imaging (FDSS) (protocol B)
- Assay type: cell-based
- test_context: Ca2+ assay as described in D.1; read-out: pEC50 (converted)
Listing of recorded EC50 by entry.
quantity_measured: EC50 (nM)

[[record]]
compound = "Cc1cc(-c2ccc(C3C[C@@H](C)O[C@@H](C)C3)c(F)c2CNC(=O)c2conc2C)cc(C)n1 (relative stereo) [Compound 63]"
unit_descriptor = "nM"
measured_value = 1070

[[record]]
compound = "Cc1cc(-c2ccc(N3CCO[C@@H](C(F)(F)F)C3)c(F)c2CNC(=O)c2conc2C)cc(C)n1 [Compound 58]"
unit_descriptor = "nM"
measured_value = 269

[[record]]
compound = "Cc1cc(-c2ccc(N3C[C@@H](C)O[C@@H](C)C3)c(CNC(=O)c3cc(C)on3)c2)cc(C)n1 [Compound 133]"
unit_descriptor = "nM"
measured_value = 50.1

[[record]]
compound = "Cc1cc(-c2ccc(C3C[C@@H](C)O[C@@H](C)C3)c(F)c2CNC(=O)c2cc(C)on2)cc(C)n1 (relative stereo) [Compound 62]"
unit_descriptor = "nM"
measured_value = 708

[[record]]
compound = "Cc1cc(-c2c(Cl)cc(N3C[C@@H](C)O[C@@H](C)C3)cc2CNC(=O)C(C)C)cc(C)n1 [Compound 121]"
unit_descriptor = "nM"
measured_value = 38

[[record]]
compound = "Cc1cc(-c2c(F)cc(N3CCO[C@@H](C(F)(F)F)C3)cc2CNC(=O)c2cc(C)on2)cc(C)n1 [Compound 100]"
unit_descriptor = "nM"
measured_value = 155


###

- target_or_test_system: human alpha 7-wt nAChR (Homo sapiens, UniProt P36544)
- Construct: expressed in transfected cells
- procedure_summary: Ca2+ flux imaging (FDSS) (protocol B)
- Format: cell-based
- test_context: Ca2+ assay as described in D.1; read-out: pEC50 (converted)
Labelling field: enter satisfied if recorded EC50 is less than 200 nM. Enter not satisfied if it equals or exceeds that cut-off.

[[record]]
molecule = "Cc1cc(-c2ccc(N3CCO[C@H](C(F)(F)F)C3)c(F)c2CNC(=O)C(C)C)cc(C)n1"
group_label = "not satisfied"

[[record]]
molecule = "Cc1cc(-c2ccc(N3C[C@@H](C)O[C@@H](C)C3)c(F)c2CNC(=O)C2CC2)cc(C)n1"
group_label = "not satisfied"

[[record]]
molecule = "Cc1cc(-c2c(F)cc(N3CCOC(C)C3)cc2CNC(=O)C2CC2)cc(C)n1 (stereo not drawn)"
group_label = "not satisfied"

[[record]]
molecule = "Cc1cc(-c2ccc(N3CCOCC3)cc2CNC(=O)c2ccc(F)cc2C)cc(C)n1"
group_label = "satisfied"

[[record]]
molecule = "Cc1cc(-c2c(F)cc(N3C[C@@H](C)O[C@@H](C)C3)c(F)c2CNC(=O)C2CC2)cc(C)n1"
group_label = "not satisfied"

[[record]]
molecule = "Cc1cc(-c2ccc(C3C[C@@H](C)O[C@@H](C)C3)c(F)c2CNC(=O)CC2CCC2)cc(C)n1 (relative stereo)"
group_label = "satisfied"

[[record]]
molecule = "Cc1cc(-c2ccc(N3C[C@@H](C)O[C@@H](C)C3)cc2CNC(=O)C2CC2)cc(C)n1"
group_label = "satisfied"

[[record]]
molecule = "Cc1cc(-c2ccc(N3C[C@@H](C)O[C@@H](C)C3)c(F)c2CNC(=O)c2ccc(F)cc2C)cc(C)n1"
group_label = "satisfied"

[[record]]
molecule = "Cc1cc(-c2ccc(N3C[C@@H](C)O[C@@H](C)C3)cc2CNC(=O)c2conc2C)ccn1"
group_label = "satisfied"

[[record]]
molecule = "Cc1cc(-c2c(F)cc(N3C[C@@H](C)O[C@@H](C)C3)cc2CNC(=O)c2conc2C)ccn1"
group_label = "satisfied"

[[record]]
molecule = "Cc1cc(-c2c(F)cc(N3CCCC(C(F)(F)F)C3)cc2CNC(=O)C2CC2)cc(C)n1 (stereo not drawn)"
group_label = "satisfied"

[[record]]
molecule = "Cc1cc(-c2c(Cl)cc(N3C[C@@H](C)O[C@@H](C)C3)cc2CNC(=O)CC2CC2)cc(C)n1"
group_label = "satisfied"

[[record]]
molecule = "Cc1cc(-c2c(F)cc(N3CCCC(C(F)(F)F)C3)cc2CNC(=O)C(C)C2CC2)cc(C)n1 (stereo not drawn)"
group_label = "satisfied"

[[record]]
molecule = "Cc1cc(-c2ccc(N3C[C@@H](C)O[C@@H](C)C3)cc2CNC(=O)C(C)C)ccn1"
group_label = "not satisfied"

[[record]]
molecule = "Cc1cc(-c2c(F)cc(N3CCOC(C)C3)cc2CNC(=O)CC2CC2)cc(C)n1 (stereo not drawn)"
group_label = "satisfied"

